target: Galactokinase (Homo sapiens); assay: qHTS for Inhibitors of Human Galactokinase (GALK): SAR round 3; conditions: ADP detection luminescence, 1 h; series mostly up to 57.5 µM
Records with an inconclusive call do not appear. Activity calls are given as the source filed them. The call rests on the fitted dose curve; in most records, active means well fitted inhibition curve with a large enough effect; inconclusive means small, poorly fitted or top-dose-only effect; inactive means flat fitted curve, though single readings scatter.
Respond with a class label; see T (active), F (inactive)

[[record]]
molecule = "O=C1CCCC2CC(Nc3nc4ccccc4o3)CC(c3ccccc3)C12 (stereo unspecified)"
target_or_test_system = "Galactokinase (Homo sapiens)"
group = "F"

[[record]]
molecule = "O=C1CCCC2=C1C(c1[nH]ncc1Cl)N=C(Nc1nc3cc(F)ccc3o1)N2 (stereo unspecified)"
target_or_test_system = "Galactokinase (Homo sapiens)"
group = "F"

[[record]]
molecule = "O=C1CCCC2=C1C(c1[nH]ncc1Cl)NC(=NCc1cccs1)N2 (stereo unspecified)"
target_or_test_system = "Galactokinase (Homo sapiens)"
group = "F"

[[record]]
molecule = "CC1=C(C(=O)Nc2nc3ccccc3s2)C(c2[nH]ncc2Cl)N=C(Nc2nc3ccccc3o2)N1 (stereo unspecified)"
target_or_test_system = "Galactokinase (Homo sapiens)"
group = "F"


Prompt: Hi, sorry to bother you, what did the test record for CC1(C)CC(=O)C2=C(C1)NC(Nc1nc3ccccc3o1)=NC21CCCC1 ?
Response: F

Prompt: Outcome logged for COc1ccc2oc(NC3=NC(c4[nH]ncc4Cl)C4=C(CCCC4=O)N3)nc2c1 (stereo unspecified) in this assay:
Response: F

Prompt: Tell me the recorded outcome of this test for CC1=C(C(=O)c2ccccc2)C(c2ccccc2Cl)N=C(Nc2nc3ccccc3o2)N1 (stereo unspecified) .
Response: F

Prompt: Check the results log: what was the call for Cn1c(NC2=NC3(CCCC3)C3=C(CCCC3=O)N2)nc2ccccc21 ?
Response: F

Prompt: Hello, I am checking results. What call was entered for O=C1CCCC2=C1C(c1cccc(F)c1)N=C(Nc1nc3ccccc3o1)N2 (stereo unspecified) ?
Response: F

Prompt: What did the test return for O=C1CCCC2=C1C(c1[nH]ncc1Cl)N=C(c1nc3ccccc3o1)N2 (stereo unspecified) ?
Response: F

Prompt: I would be grateful if you could indicate the recorded call for O=C1CCCC2=C1C(c1[nH]ncc1Cl)N=C(Nc1ccn[nH]1)N2 (stereo unspecified) .
Response: F

Prompt: Answer briefly: the call reported for O=C1CCCC2=C1C(c1[nH]ncc1Cl)NC(=NCc1ccco1)N2 (stereo unspecified) in this assay.
Response: F

Prompt: Dear colleague, could you share the recorded outcome for O=C1CCCC2=C1C(c1[nH]ncc1Cl)N=C(Nc1nc3c(Br)cccc3o1)N2 (stereo unspecified) when you have a moment?
Response: F

Prompt: // param item: O=C1NC2=C(C(=O)CCC2)C(c2ccccc2Cl)N1 (stereo unspecified) ; yields the recorded call
Response: F

Prompt: Name the outcome recorded for O=C1CCCC2=C1C(c1[nH]ncc1Cl)NC(=NCCc1ccccc1)N2 (stereo unspecified) in the assay.
Response: F

Prompt: Entry CC(C)CN1CC2=C(C1=O)C(c1ccccc1Cl)N=C(Nc1nc3ccccc3o1)N2 (stereo unspecified) : call = ?
Response: F

Prompt: For CC1=C(C(=O)Nc2ccc(Cl)cc2)C(c2ccccc2Br)N=C(Nc2nc3ccccc3o2)N1 (stereo unspecified) , which call appears in the assay record?
Response: F

Prompt: I would be grateful if you could indicate the recorded call for CC1=C(C(=O)Nc2nncs2)C(c2[nH]ncc2Cl)N=C(Nc2nc3ccccc3o2)N1 (stereo unspecified) .
Response: T

Prompt: Which outcome did this test record for the molecule Nc1ncc(S(=O)(=O)N2CCOCC2)s1 ?
Response: F
